Values compiled from ChEMBL document CHEMBL4350955.

Experiment: physchem
Conditions: phosphate buffer, pH 7.4
Description: Aqueous solubility in pH 7.4 phosphate buffer after 24 hrs by UPLC/MS/MS analysis
value type: solubility at 24 h
Hi, when you answer, please include the unit after the number. Thanks!

// solved cases for solubility at 24 h follow
Cc1cc(-c2ccc(C(=O)[C@@H]3CCCC[C@H]3C(=O)Nc3cn(C)nc3C#N)cc2)n[nH]1; 25 µM
Cc1cc(-c2ccc3c([C@@H]4CCCC[C@H]4C(=O)Nc4cn(C)nc4C(N)=O)noc3c2)n[nH]1; 27 µM

Query: Return solubility at 24 h (reported value) for this compound: Cc1cc(-c2ccc(C(=O)[C@@H]3CCCC[C@H]3C(=O)Nc3cn(C)nc3C)cc2)n[nH]1
Result: 225 µM
